Experimental Readout: melting point

Q) Given the entry Cl.N[C@@]1(C(=O)OCc2ccccc2Br)CC[C@H]2[C@H](C(=O)O)[C@H]21 , report its measured melting point.
A) 190 to 191 °C

Q) Which measured melting point value corresponds to Cl.N[C@@]1(C(=O)OCc2cc(F)cc(F)c2)CC[C@H]2[C@H](C(=O)O)[C@H]21 ?
A) 98 to 99 °C

Q) Value lookup for melting point; key = Cl.N[C@@]1(C(=O)OCc2ccccc2F)CC[C@H]2[C@H](C(=O)O)[C@H]21
A) > 220 °C (dec.)

Q) Could you share which melting point value was measured for Cc1ccc(C)c(COC(=O)[C@]2(N)CC[C@H]3[C@H](C(=O)O)[C@H]32)c1.Cl ?
A) 70 °C (dec.)

Q) What measured melting point goes with Cl.N[C@@]1(C(=O)OCc2ccccc2C(F)(F)F)CC[C@H]2[C@H](C(=O)O)[C@H]21 ?
A) > 175 °C (dec.)

Q) Recorded melting point for COc1ccccc1COC(=O)[C@]1(N)CC[C@H]2[C@H](C(=O)O)[C@H]21 , please?
A) 195 °C (dec.)

Q) Which melting point reading was recorded for the compound Cl.N[C@@]1(C(=O)OCc2cc(Cl)ccc2Cl)CC[C@H]2[C@H](C(=O)O)[C@H]21 ?
A) 173 to 175 °C

Q) Any idea what melting point was measured for N[C@@]1(C(=O)OCc2cccc(F)c2)CC[C@H]2[C@H](C(=O)O)[C@H]21 ?
A) 225 °C (dec.)

Q) Could you share which melting point value was measured for Cl.N[C@@]1(C(=O)OCc2ccc(Cl)cc2Cl)CC[C@H]2[C@H](C(=O)O)[C@H]21 ?
A) 135 to 137 °C
